Taken from PubChem BioAssay (NCI).

# System: MALME-3M melanoma
# ASSAY: NCI-60 one-dose screen, 48 h (100 = growth as untreated, 0 = no growth, -100 = all killed)
# EXPERIMENTAL CONTEXT: 10 µM unless noted
The panel holds about 83,000 compounds, 20% with a hit somewhere; the sample as a whole holds those more often.

MOLECULE | growth / %
CCn1c2ccccc2c2ccc(C(C)=O)cc21 | 113
O=C(Nc1ccc(Cl)cc1)Nc1ccc(Nc2nncc3ccccc23)cc1 | 38.5
COc1cc(C2NC(c3ccc(Cl)cc3)C(C)/C(=N/NC(N)=S)C2C)cc(OC)c1OC (stereo not drawn) | 73
CC(C)C(=O)Cc1cnccn1 | 111
CC(=O)c1cc(C(=O)c2ccc3c(c2)Sc2ccccc2N3)c2c(C)cc(C)cn12 | 69.6
CC12CCC3C(CCC4CC(=O)/C(=C\O)CC43C)C1CCC(=O)O2 (stereo not drawn) | 124
Cc1cc(O)c2c(c1)C[C@H]1[C@@H]3CC[C@H]4CC(=O)CC[C@]4(C)[C@H]3CC(=O)[C@]21C | 92.8
CCCCOc1ccc(C(C)(C)c2ccc(OCCCC)cc2)cc1 | 98.7
CCC1=C(c2ccc(OC)cc2)C(C)(C)Oc2c1ccc(O)c2CN1CCCC1 | -9.28
O=C(OCCBr)c1ccc(Cl)c([N+](=O)[O-])c1 | 97.2
C/C(=C\CCc1ccoc1)CC/C=C(\C)CCCN1CCC(CO)CC1 | 11
CN(C)c1nc(N)nc(Cn2c(-c3nonc3N)nc3ccccc32)n1 | 88
ClC1=C(Cl)C(=C2C(Cl)=C(Cl)C(Cl)=C2Cl)C(Cl)=C1Cl | 106
CCc1[nH]nc(-c2ccc(OC)cc2)c1-c1ccccc1OCCN(CC)CC | 95.5
CCCCCCCC/C=C\CCCCCCCCOc1ccccc1CC(=O)NCC[N+]1(C)CCCC1 | 88.3
Cc1nn(-c2ccc(Cl)cc2)c2nc3c(nc12)c(=O)oc1ccccc13 | 108
COC(=O)[C@]12CC[C@@H](C)[C@H](C)[C@@H]1C1=CC[C@@H]3[C@@]4(C)C[C@@H](OC(=O)c5ccco5)[C@H](O)[C@@](C)(CO)[C@@H]4[C@H](O)C[C@@]3(C)[C@]1(C)CC2 | -73.4
COC(=O)[C@]1(CCSC)N[C@H](c2cn(-c3ccccc3)nc2C)[C@@H]2C(=O)N(c3ccc(C)cc3)C(=O)[C@@H]21 | 99
CCC1=C(c2ccc(OC)cc2)C(C)Oc2cc(OC(C)=O)ccc21 (stereo not drawn) | 98
O=C(NCCc1ccccc1)C1CCC(=O)N1Cc1ccc(Br)cc1 (stereo not drawn) | 96.7
c1ccc(-c2nnc(Nc3nnc(-c4ccccc4)s3)s2)cc1 | 101
Cc1nn(-c2ccc(Cl)cc2)c2nc3c(nc12)C(=O)C(=O)c1ccccc1-3 | 36.8
COc1ccc(/C(=C2\O[C@@H]([C@H](O)CO)[C@H]3OC(C)(C)O[C@@H]23)c2cc(OC)c(OC)c(OC)c2)cc1O | 75.7
CC/C=C\C=C/C(=O)N/C=C/CC1Cc2cccc(O)c2C(=O)O1 (stereo not drawn) | 98.8
COC(=O)[C@]1(C(C)C)N[C@H](c2cn(-c3ccccc3)nc2-c2ccccc2)[C@@H]2C(=O)N(c3ccc(Cl)cc3)C(=O)[C@@H]21 | 107
O=c1ccn(C2OC(CO)C(O)C2F)c(=O)[nH]1 (stereo not drawn) | 116
N#Cc1c(N2CCOCC2)nc2sc3cc(Cl)ccc3n2c1=N | 117
CCOC(=O)C1=NN(c2ccc(Cl)cc2)C2C3N(c4ccc(Cl)cc4)N=C(C(=O)OCC)N3c3ccccc3N12 (stereo not drawn) | 132
